cytotoxicity at 70.5 h by entry:
assay: Human HepG2 cell viability assay in 384 well format; format: toxicity, cell-based; parameters: dose 125 nL, time 70.5 hour; concentration not given beside the values; details: HepG2 cells, read-out: Inhibition
Endpoint: cytotoxicity at 70.5 h

>  <Molecule>
Cc1nc(CN2CCCN(C(=O)c3sccc3C#N)CC2)cs1

>  <Endpoint>
cytotoxicity at 70.5 h

>  <Measured Result>
0.736%

$$$$
>  <Molecule>
COC(=O)c1cccc2nc([C@H]3CCN(CC(C)C)C3)oc12

>  <Endpoint>
cytotoxicity at 70.5 h

>  <Measured Result>
-4.07%

$$$$
>  <Molecule>
Cc1nc(CN(C)S(=O)(=O)c2ccccc2C(F)(F)F)no1

>  <Endpoint>
cytotoxicity at 70.5 h

>  <Measured Result>
-5.33%

$$$$
>  <Molecule>
CCOCC(=O)NC(C)Cc1ccccc1Br (stereo unspecified)

>  <Endpoint>
cytotoxicity at 70.5 h

>  <Measured Result>
-4.95%

$$$$
>  <Molecule>
CC(C(=O)Nc1cc(F)ccc1F)N1CCN(Cc2ncc[nH]2)CC1 (stereo unspecified)

>  <Endpoint>
cytotoxicity at 70.5 h

>  <Measured Result>
42.5%

$$$$
>  <Molecule>
Cn1cncc1CN1CCC(O)(Cn2nc(-c3cccs3)oc2=O)CC1

>  <Endpoint>
cytotoxicity at 70.5 h

>  <Measured Result>
-2.36%

$$$$
>  <Molecule>
Cn1c(N2CCOCC2)nc2cc(C(=O)N3CCCOCC3)ccc21

>  <Endpoint>
cytotoxicity at 70.5 h

>  <Measured Result>
-12.1%

$$$$
>  <Molecule>
O=C(C1CCCC1)N1CCC(c2n[nH]c3nccnc23)CC1

>  <Endpoint>
cytotoxicity at 70.5 h

>  <Measured Result>
-1.92%

$$$$
>  <Molecule>
Cc1ccc(CN2CCO[C@@H]3[C@@H](OCc4cccnc4)CC[C@@H]32)o1

>  <Endpoint>
cytotoxicity at 70.5 h

>  <Measured Result>
-4.63%

$$$$
>  <Molecule>
Cc1cc2ncc(CN(C)C)c(C3CCN(C)CC3)n2n1

>  <Endpoint>
cytotoxicity at 70.5 h

>  <Measured Result>
13.7%

$$$$
>  <Molecule>
O=C(Nc1cnn(CC(=O)N2CCCCO2)c1)c1ccccn1

>  <Endpoint>
cytotoxicity at 70.5 h

>  <Measured Result>
2.98%

$$$$
